Test system: BEAS-2B
assayProtocol: Antiproliferation assay
Assay type: cell-based
assayContext: Homo sapiens, 24 h, read-out: IC50 = mean ± SD, BEAS-2B
recordedMetric: IC50 (µM)
Answers are plain numbers, in µM.

# compound, u, IC50
records = [
    ("COc1cc([C@@H]2c3cc4c(cc3[C@H](OC(=O)CCCc3ccc(NS(=O)(=O)c5cccc(F)c5)cc3)[C@H]3COC(=O)[C@H]23)OCO4)cc(OC)c1OC [Compound E6]", "µM", 94.3),
]

Would you kindly look at the next entry?
For BEAS-2B, provide IC50 of COc1cc([C@@H]2c3cc4c(cc3[C@H](OC(=O)CCCc3ccc(NS(=O)(=O)c5ccc(F)cc5F)cc3)[C@H]3COC(=O)[C@H]23)OCO4)cc(OC)c1OC [Compound E9] please.
99.3

---

System: Hela
assayProtocol: Antiproliferation assay
Type: cell-based
assayContext: Homo sapiens, 24 h, read-out: IC50 = mean ± SD, Hela
Exercise: state measured IC50 for each of the compounds provided.
One number for each entry, in µM.

The following compounds each have a reported value; give each one's IC50.
1. COc1cc([C@@H]2c3cc4c(cc3[C@H](OC(=O)CCCc3ccc(NS(=O)(=O)c5cccc(F)c5)cc3)[C@H]3COC(=O)[C@H]23)OCO4)cc(OC)c1OC
2. CCCc1ccc(S(=O)(=O)Nc2ccc(CCCC(=O)O[C@H]3c4cc5c(cc4[C@@H](c4cc(OC)c(OC)c(OC)c4)[C@H]4C(=O)OC[C@@H]43)OCO5)cc2)cc1
3. COc1cc([C@@H]2c3cc4c(cc3[C@H](OC(=O)CCCc3ccc(NS(=O)(=O)c5ccc(F)cc5F)cc3)[C@H]3COC(=O)[C@H]23)OCO4)cc(OC)c1OC
4. COc1cc([C@@H]2c3cc4c(cc3[C@H](OC(=O)CCCc3ccc(NS(=O)(=O)c5ccc(C)cc5)cc3)[C@H]3COC(=O)[C@H]23)OCO4)cc(OC)c1OC
5. COc1cc([C@@H]2c3cc4c(cc3[C@H](OC(=O)CCCc3ccc(NS(=O)(=O)c5ccc(Br)cc5)cc3)[C@H]3COC(=O)[C@H]23)OCO4)cc(OC)c1OC

12.7
39.2
62
36.1
18.4

Count: 3. Required value per item: IC50.
1. COc1cc([C@@H]2c3cc4c(cc3[C@H](OC(=O)CCCc3ccc(NS(=O)(=O)c5ccc([N+](=O)[O-])cc5)cc3)[C@H]3COC(=O)[C@H]23)OCO4)cc(OC)c1OC
2. COc1cc([C@@H]2c3cc4c(cc3[C@@H](O[C@@H]3O[C@@H]5CO[C@@H](C)O[C@H]5[C@H](O)[C@H]3O)[C@H]3COC(=O)[C@H]23)OCO4)cc(OC)c1O [Etoposide, etoposide, reference compound]
3. COc1cc([C@@H]2c3cc4c(cc3[C@H](OC(=O)CCCc3ccc(NS(=O)(=O)c5c(F)cccc5F)cc3)[C@H]3COC(=O)[C@H]23)OCO4)cc(OC)c1OC

1. 26.8
2. 24.7
3. 27.5

Below are 6 compounds. Give each one its IC50.
1. COc1cc([C@@H]2c3cc4c(cc3[C@H](OC(=O)CCCc3ccc(NS(=O)(=O)c5cc([N+](=O)[O-])ccc5C)cc3)[C@H]3COC(=O)[C@H]23)OCO4)cc(OC)c1OC
2. COc1cc([C@@H]2c3cc4c(cc3[C@H](OC(=O)CCCc3ccc(NS(=O)(=O)c5cccc([N+](=O)[O-])c5)cc3)[C@H]3COC(=O)[C@H]23)OCO4)cc(OC)c1OC
3. COc1cc([C@@H]2c3cc4c(cc3[C@H](OC(=O)CCCc3ccc(NS(=O)(=O)c5ccccc5[N+](=O)[O-])cc3)[C@H]3COC(=O)[C@H]23)OCO4)cc(OC)c1OC
4. COc1cc([C@@H]2c3cc4c(cc3[C@H](O)[C@H]3COC(=O)[C@H]23)OCO4)cc(OC)c1OC [PPT, Podophyllotoxin, reference compound]
5. COc1cc([C@@H]2c3cc4c(cc3[C@H](OC(=O)CCCc3ccc(NS(=O)(=O)c5cccc(Br)c5)cc3)[C@H]3COC(=O)[C@H]23)OCO4)cc(OC)c1OC
6. COc1cc([C@@H]2c3cc4c(cc3[C@H](OC(=O)CCCc3ccc(NS(=O)(=O)c5ccc(C(F)(F)F)cc5)cc3)[C@H]3COC(=O)[C@H]23)OCO4)cc(OC)c1OC

1. 16.9
2. 51.3
3. 46.7
4. 15.3
5. 51.3
6. 51.8

Record lookup: for Hela, what IC50 belongs to `COc1cc([C@@H]2c3cc4c(cc3[C@H](OC(=O)CCCc3ccc(NS(=O)(=O)c5ccccc5F)cc3)[C@H]3COC(=O)[C@H]23)OCO4)cc(OC)c1OC` ?
13.6
